Test system: E. coli TOP10
Format: cell-based
Assay Conditions: 0.01% arabinose, end point OD450 after 14 hours, 37 degrees Celsius
Readout Type: Growth inhibition using 0.01% arabinose (%)
Report only the number, with the unit % understood.

- GLLRKLRKEVKKVLSIFFRWL (Synthetic antimicrobial peptide) [SEQ ID NO:39]: 97
- GLLNKIKKTIKRAVQHVL (Synthetic antimicrobial peptide) [SEQ ID NO:18]: 76

Reported Growth inhibition using 0.01% arabinose (%) for GLWNMLKKKLKKIAQGIR (Synthetic antimicrobial peptide) [SEQ ID NO:15] : what is it? 73

Do the same for GLLRKLGKKIKRVVKHVG (Synthetic antimicrobial peptide) [SEQ ID NO:10] please 98

Do the same for GLLSKIMKAVKRTLKHIL (Synthetic antimicrobial peptide) [SEQ ID NO:16] please 89

Do the same for GLLRKIKMKAKKVLKNIL (Synthetic antimicrobial peptide) [SEQ ID NO:22] please 72

Do the same for GILNKLRKKLKRVLQRIL (Synthetic antimicrobial peptide) [SEQ ID NO:27] please 84

Do the same for GLFSIIMRAVKKVWQRVR (Synthetic antimicrobial peptide) [SEQ ID NO:9] please 97

The reported numbers originate from patent US20070259087A1.
